test system: NCI-H23 lung; test: NCI-60 one-dose screen, 48 h (100 = growth as untreated, 0 = no growth, -100 = all killed); conditions: 10 µM unless noted
About 83,000 compounds went through this panel and 20% of them were active in at least one assay; those are over-represented in the sample as a whole.
The label depends only on growth: Satisfied if it is at least 80%, Not satisfied if it is smaller.

Examples from the recorded data:
compound	answer-label
O=C1c2ccccc2Cc2cccc(Cl)c21	Satisfied
O=[N+]([O-])c1ccc([I+]c2ccccc2)cc1	Not satisfied
O=[N+]([O-])c1ccc(C2N(Cc3ccc(Cl)cc3)CCN2Cc2ccc(Cl)cc2)cc1	Satisfied
O=C/C=C/c1ccc([N+](=O)[O-])cc1	Satisfied
NNc1ccc(Cl)cc1Cl	Satisfied

Given c1ccc(-c2cccc(-c3ccccn3)n2)nc1 , state whether its growth is at least 80%.
Not satisfied
